Data provenance is patent US20100184802A1.

Target: P2X7 receptor (IL-1β release from THP-1 cells) (Homo sapiens)
Sequence (Q99572 whole entry): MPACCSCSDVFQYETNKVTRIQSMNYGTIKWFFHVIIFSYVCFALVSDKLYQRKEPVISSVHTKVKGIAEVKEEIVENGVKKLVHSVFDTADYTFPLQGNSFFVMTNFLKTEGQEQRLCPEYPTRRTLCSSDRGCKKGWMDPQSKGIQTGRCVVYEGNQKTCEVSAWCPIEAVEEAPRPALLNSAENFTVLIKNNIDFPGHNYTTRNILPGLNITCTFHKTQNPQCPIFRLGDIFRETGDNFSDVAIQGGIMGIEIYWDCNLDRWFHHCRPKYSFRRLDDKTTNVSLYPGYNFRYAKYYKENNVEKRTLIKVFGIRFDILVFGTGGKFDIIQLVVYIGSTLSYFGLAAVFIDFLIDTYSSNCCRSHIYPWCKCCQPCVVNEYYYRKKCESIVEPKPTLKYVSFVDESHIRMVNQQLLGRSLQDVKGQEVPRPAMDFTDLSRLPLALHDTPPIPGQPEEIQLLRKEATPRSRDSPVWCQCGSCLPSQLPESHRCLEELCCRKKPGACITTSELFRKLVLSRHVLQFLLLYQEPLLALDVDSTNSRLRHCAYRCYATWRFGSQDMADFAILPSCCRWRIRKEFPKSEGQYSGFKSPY
Experiment: IL-1β release assay in differentiated THP-1 cells stimulated with BzATP (Example 9)
Conditions: released IL-1β as in Example 9, four parameter logistic fit
Attribute Measured: IC50 (nM)

O=C(CC12CC3CC(CC(C3)C1)C2)Nc1cccc2c1CCN(C(CO)CO)C2=O [Compound 508]    0.779

(I) C[C@H](C(=O)O)n1ccc2c(NC(=O)CC34CC5CC(CC(C5)C3)C4)cccc2c1=O [Compound 601]
(II) C[C@H](C(=O)NC1CC1)n1ccc2c(NC(=O)CC34CC5CC(CC(C5)C3)C4)cccc2c1=O [Compound 598]
(III) O=C(CC12CC3CC(CC(C3)C1)C2)Nc1cccc2c(=O)n(CC3CCNCC3)ccc12 [Compound 501]
### Prompt Rank items: key IC50, increasing. The response must list the labels following the requested ordering.
### Response II, III, I
